# assay overview: chemical genetic growth profiling, strain panel (AID 1159580);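 note: tested at 20 µM; growth read once vehicle control cultures reached saturation at 30 °C; 1 = growth at the plate median or of vehicle wells; lower values mean less growth of the strain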
# assay setup: S. cerevisiae deletion strains, growth OD, locus YAL030W, strain snc1, hits give low values
Among all 5,500 compounds or so, about 2,000 (36%) were called active. Another 18% or so got no clear call; they are omitted. The list shows a part of the results.
outcome measure: normalized growth
Provide a numeric answer; units are not to be included.

# count of solved cases: 6
{"columns": ["molecule", "outcome measure", "recorded number"],
 "data": [
  ["CC(=O)O[C@@H]1CC2C(C)(C)[C@H](O)C=C[C@]2(C)C2CC[C@@]3(C)[C@H](c4ccoc4)OC(=O)C4OC43[C@@]21C (some centres not stated)", "normalized growth", 1.01],
  ["COc1ccc(CCC(=O)c2c(O)cc(O[C@@H]3O[C@H](CO)C(O)[C@H](O)C3O[C@@H]3O[C@@H](C)[C@H](O)[C@@H](O)[C@H]3O)cc2O)cc1O (some centres not stated)", "normalized growth", 1.01],
  ["CCCCC(=O)O[C@]1(C(=O)CO)CCC2C3CCC4=CC(=O)CC[C@]4(C)C3[C@@H](O)C[C@@]21C (some centres not stated)", "normalized growth", 0.976],
  ["CC(=O)O[C@H]1C[C@@H](OC(C)=O)C(C)(C)C2C[C@@H](OC(C)=O)[C@]3(C)C(CC[C@@]4(C)[C@H](c5ccoc5)OC(=O)[C@H]5O[C@]543)[C@]21C (some centres not stated)", "normalized growth", 0.993],
  ["CC(=O)O[C@@H]1CC2C(C)(C)[C@H](O)CC[C@]2(C)C2CC[C@@]3(C)[C@H](c4ccoc4)OC(=O)C4OC43[C@@]21C (some centres not stated)", "normalized growth", 1.01],
  ["CC(=O)O[C@@H]1CC2C(C)(C)C(=O)C3OC3[C@]2(C)C2CC[C@@]3(C)[C@H](c4ccoc4)OC(=O)C4OC43[C@@]21C (some centres not stated)", "normalized growth", 0.993]
]}

We next turn to a different molecule, shown below.
Exercise: Query (molecule): `O=C1CCCN1CC#CCN1CCCC1` ; field requested: normalized growth
Solution: 1.02

###

# assay overview: chemical genetic growth profiling, strain panel (AID 1159580)
# assay setup: S. cerevisiae deletion strains, growth OD, locus YKL085W, strain MDH1
About 2,000 (36%) of roughly 5,500 compounds were called active. Another 18% or so got no clear call; they are omitted. No stated cut-off is given here; in the data, active means normalized growth mostly below about 0.91 (no sharp cut-off); inconclusive means no clear call, values can overlap the other calls; inactive means mostly above about 0.92. This is one part of the list. Where a SMILES comes first, the peptide text is derived from it.
Respond using exactly one of the listed classes: Y (active), N (inactive)

{"columns": ["compound", "cat"],
 "data": [
  ["CC(=O)OC1CC(O)C(C)(C)C2CC(=O)C3(C)C(CCC4(C)C(c5ccoc5)OC(=O)C5OC543)C12C (stereo not drawn)", "N"],
  ["CCC(C)C(=O)c1c(O)c(C)c2oc3c(C)c(O)c(C(=O)C(C)CC)c(O)c3c2c1O (stereo not drawn)", "Y"],
  ["CN[C@@H]1C(OC2[C@H](O[C@H]3[C@H](O)[C@@H](O)[C@H](N=C(N)N)[C@@H](O)[C@@H]3N=C(N)N)OC(C)[C@]2(O)CO)OC(CO)C(O)C1O (stereo partly drawn)", "N"],
  ["CC(=O)N[C@@H](CCC(=O)O)C(=O)O", "N"],
  ["CC(=O)O[C@]1(C)CC[C@@]23CC1C(C)(C)[C@@H]2CC[C@H]3C", "N"]
]}

Exercise: Please indicate how the test categorized CCCCCCCCCCCC(=O)OCC(COP(=O)(O)OCC(O)COP(=O)(O)OCC(COC(=O)CCCCCCCCCCC)OC(=O)CCCCCCCCCCC)OC(=O)CCCCCCCCCCC (stereo not drawn) .
Solution: N

Exercise: Please indicate how the test categorized `c1ccc2c(CC3=NCCN3)cccc2c1` .
Solution: N

Exercise: Please indicate how the test categorized `Cc1onc(-c2ccccc2)c1-c1ccc(S(N)(=O)=O)cc1` .
Solution: N

Exercise: Please indicate how the test categorized CC(=O)OCC(=O)[C@@]1(O)CCC2C3CCC4=CC(=O)C=CC4(C)C3[C@@H](O)C[C@@]21C (stereo partly drawn) .
Solution: N

Exercise: Please indicate how the test categorized COc1ccc(CCC(=O)c2c(O)cc(O[C@@H]3O[C@H](CO)C(O)[C@H](O)C3O[C@@H]3O[C@@H](C)[C@H](O)[C@@H](O)[C@H]3O)cc2O)cc1O (stereo partly drawn) .
Solution: N

Exercise: Please indicate how the test categorized `OC[C@H]1O[C@@H](n2cnc3c(NCc4ccco4)ncnc32)[C@H](O)[C@@H]1O` .
Solution: N

Exercise: Please indicate how the test categorized `NC(N)=NCCN1CCCCCCC1` .
Solution: N

Exercise: Please indicate how the test categorized CC(=O)N[C@@H](CC(=O)O)C(=O)N[C@@H](CCC(=O)O)C(=O)O (Ac-Asp-Glu-OH) .
Solution: N

Exercise: Please indicate how the test categorized Clc1ccc(COC(Cn2ccnc2)c2ccc(Cl)cc2Cl)cc1 (stereo not drawn) .
Solution: Y

Exercise: Please indicate how the test categorized CC(C)/C(O)=C1/C(=O)O[C@@H](c2ccoc2)[C@]2(C)C(O)[C@@H](O)[C@@]34OC5(C)OC67CC(C)(C(O)[C@]6(O)[C@@H](O)[C@]3(O5)C12)[C@H](CC(=O)O)[C@]74C (stereo partly drawn) .
Solution: N

###

# assay overview: chemical genetic growth profiling, strain panel (AID 1159580);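 note: tested at 20 µM; growth read once vehicle control cultures reached saturation at 30 °C; 1 = growth at the plate median or of vehicle wells; lower values mean less growth of the strain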
# assay setup: S. cerevisiae deletion strains, growth OD, locus YLR330W, strain CHS5
The campaign covered roughly 5,500 compounds. About 2,000 (36%) were called active. Not shown: some 18% with an inconclusive outcome. No stated cut-off is given here; in the data, active means normalized growth mostly below about 0.91 (no sharp cut-off); inconclusive means no clear call, values can overlap the other calls; inactive means mostly above about 0.92. The list shows a part of the results.
Respond using exactly one of the listed classes: active, inactive

{"columns": ["molecule", "cat"],
 "data": [
  ["COc1ccc2oc(-c3ccccc3)c(OC)c(=O)c2c1", "active"],
  ["O=C1CCCCC/C=C/CCCCCCCCO1", "inactive"],
  ["CN(C)CCC(c1ccccc1)c1ccccn1 (configuration not stated)", "inactive"]
]}

Exercise: Please indicate how the test categorized O=C(O)CCC1NCC2CC1CN1CCCCC21 (configuration not stated) .
Solution: inactive

Exercise: Please indicate how the test categorized `NCCCNCCSP(=O)(O)O` .
Solution: inactive

Exercise: Please indicate how the test categorized `COP(=S)(OC)Oc1ccc([N+](=O)[O-])cc1` .
Solution: inactive

###

# assay overview: chemical genetic growth profiling, strain panel (AID 1159580);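 note: tested at 20 µM; growth read once vehicle control cultures reached saturation at 30 °C; 1 = growth at the plate median or of vehicle wells; lower values mean less growth of the strain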
# assay setup: S. cerevisiae deletion strains, growth OD, locus YDL028C, strain MPS1, hits give low values
The campaign covered roughly 5,500 compounds. About 2,000 (36%) were called active. Inconclusive results (about 18%) are left out. Some of the results follow.
outcome measure: normalized growth
Provide a numeric answer; units are not to be included.

{"columns": ["compound", "outcome measure", "recorded number"],
 "data": [
  ["O=C(Nc1ccncc1)c1cc(-c2ccccc2)oc1C(F)(F)F", "normalized growth", 0.993],
  ["N/C(=N/O)c1ccc(Oc2ccc(C3SCCS3)cc2)c([N+](=O)[O-])c1", "normalized growth", 1.01],
  ["COc1ccc2c(c1)CCc1sc(NC(=O)c3ccco3)nc1-2", "normalized growth", 0.971],
  ["Nc1ccccc1C(=O)Nc1cc(C(F)(F)F)cc(C(F)(F)F)c1", "normalized growth", 0.943],
  ["Cc1c(S(=O)(=O)Nc2cccc([N+](=O)[O-])c2)sc2ccc(Cl)cc12", "normalized growth", 0.979]
]}

Exercise: Query (compound): `COc1ccc(-c2csc(-c3cccnc3)n2)cc1` ; field requested: normalized growth
Solution: 0.965

Exercise: Query (compound): CC(C)(C)C1=C(C#N)C(c2c(Cl)cccc2Cl)C(C#N)=C(N)O1 (configuration not stated) ; field requested: normalized growth
Solution: 0.997

###

Let's look at some compounds and their measured normalized growth.
# assay overview: chemical genetic growth profiling, strain panel (AID 1159580);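 note: tested at 20 µM; growth read once vehicle control cultures reached saturation at 30 °C; 1 = growth at the plate median or of vehicle wells; lower values mean less growth of the strain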
# assay setup: S. cerevisiae deletion strains, growth OD, locus YBL061C, strain skt5, hits give low values
The campaign covered roughly 5,500 compounds. About 2,000 (36%) were called active. About 18% were inconclusive and are not listed. Some of the results follow.
Provide a numeric answer; units are not to be included.

# count of solved cases: 5
{"columns": ["compound", "normalized growth"],
 "data": [
  ["CCCCCCCCCCCCCC(=O)OC1C(C)C2(O)C(C=C(CO)CC3(O)C(=O)C(C)=CC32)C2C(C)(C)C12OC(C)=O (centres undefined)", 0.981],
  ["Cc1oncc1C(=O)Nc1ccc(C(F)(F)F)cc1", 1.01],
  ["COc1cc2c(cc1OC)C1(O)C(=O)c3ccc(O)c(C(=O)O)c3OC1CO2 (centres undefined)", 0.995],
  ["C=C1C(=O)[C@]23[C@H](O)[C@H]1CC[C@H]2[C@@]12CO[C@]3(O)[C@H](O)[C@@H]1C(C)(C)CC[C@@H]2O", 0.987],
  ["COC[C@]12CN(C=O)C3[C@@H]4[C@H](OC)C1[C@]3(C1CC3(O)C(OC)C(O)C4(OC(C)=O)C1C3OC(=O)c1ccccc1)[C@@H](OC)C[C@H]2O (some centres undefined)", 1.01]
]}

Exercise: Query (compound): CCC(=O)OC1[C@@H]2CC3=C4CC(=O)O[C@@H](c5ccoc5)[C@]4(C)CCC3[C@@](C)(C2=O)[C@@H](CC(=O)OC)C1(C)C (some centres undefined) ; field requested: normalized growth
Solution: 0.992

Exercise: Query (compound): COc1ccc2c(c1)OCC(Cc1ccc(O)c(OC)c1)C2=O (centres undefined) ; field requested: normalized growth
Solution: 0.978

Exercise: Query (compound): COc1ccc2c(c1)OCC(Cc1ccc(OC)c(OC(C)=O)c1)C2=O (centres undefined) ; field requested: normalized growth
Solution: 0.967

Exercise: Query (compound): COc1ccc2c(c1)OCC(Cc1ccc(OC)c(O)c1)C2=O (centres undefined) ; field requested: normalized growth
Solution: 0.961
